Parameter viability (% of control): see the listing below.
- assay: High-throughput drug toxicity screening in the BPDCN cell line Cal-1 (AID 1224825);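 further: cells exposed to compounds for 48 h; 100% = DMSO and 0% = bortezomib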
- condition.parameters: Cal-1 BPDCN cell viability, qHTS; at 45.8 µM (top of the series) unless noted

INPUT: Given CC[C@H](Nc1ncnc2nc[nH]c12)c1nc2cccc(F)c2c(=O)n1-c1ccccc1 , state its recorded viability (% of control).
OUTPUT: 18.8%

INPUT: Requested read-out: viability (% of control). Entry: C#Cc1cccc(Nc2ncnc3cc(OCCOC)c(OCCOC)cc23)c1
OUTPUT: 10.9%

INPUT: What does the record list as viability (% of control) for CCOc1cc(C(=O)Nc2ccc(Cl)c(-c3nc4ccccc4[nH]3)c2)cc(OCC)c1OCC ?
OUTPUT: 43.8%

INPUT: Bench note: what viability (% of control) did O=c1[nH]cnc2[nH]ncc12 show?
OUTPUT: 101%

INPUT: Form field: reported viability (% of control) of Cc1cc2c(F)c(Oc3ncnn4cc(OC[C@@H](C)O)c(C)c34)ccc2[nH]1
OUTPUT: 71.2%

INPUT: Find the recorded viability (% of control) belonging to CCC(=O)N[C@H]1CC[C@H](C(=O)N(C)c2ccc(-c3nc4ccccc4o3)cc2)C1 and report it.
OUTPUT: 92.1%

INPUT: For CC(C)C[C@H](NC(=O)[C@@H](O)[C@H](N)Cc1ccccc1)C(=O)O , what is its reported viability (% of control)?
OUTPUT: 38.3%

INPUT: State the recorded viability (% of control) for this entry: CCN(c1ccccc1)c1cc(NC)[n+](C)c(C)n1
OUTPUT: 119%

INPUT: If you can, please state the reported viability (% of control) value of NC(=O)c1ccc(-c2nc(-c3ccc4c(c3)OCO4)c(-c3ccccn3)[nH]2)cc1 .
OUTPUT: 113%

INPUT: I'd like to know its viability (% of control). The compound in question is COc1ccc(-c2ccc3c(N4CCOCC4)nc(N4C[C@@H](C)O[C@@H](C)C4)nc3n2)cc1CO
OUTPUT: 12.6%

INPUT: Sample Cn1cnc([N+](=O)[O-])c1Sc1ncnc2nc[nH]c12 — what was its viability (% of control)?
OUTPUT: 93.1%

INPUT: Which viability (% of control) value is on record for Cc1c(CN2CCN(C(=O)C(C)C)CC2)sc2c(N3CCOCC3)nc(-c3cnc(N)nc3)nc12 ?
OUTPUT: 3.99%

INPUT: Suppose we examine the compound CC[C@@H](C)[C@H](NC(=O)[C@H](CC1CCCCC1)NC(=O)c1ccno1)C(=O)N1CCC2(CCc3ccccc32)CC1 ; what viability (% of control) value has been reported?
OUTPUT: 111%

INPUT: Field request: viability (% of control) | item: CC1(C)Cc2c(-c3ccccc3)c(-c3ccc(Cl)cc3)c(CC(=O)O)n2C1
OUTPUT: 78.3%

INPUT: GET /values?readout=viability (% of control)&item= CC(C[N+](C)(C)C)OC(N)=O (stereo unspecified)
OUTPUT: 120%

INPUT: Consider the compound S=C(NCc1ccc2c(c1)OCO2)N1CCN(c2ncnc3c2oc2ccccc23)CC1 and give its measured viability (% of control).
OUTPUT: 56.7% [at 92.2 µM]

INPUT: What value of measured viability (% of control) is listed for Cc1ccc(-n2nc(C(C)(C)C)cc2NC(=O)Nc2ccc(OCCN3CCOCC3)c3ccccc23)cc1 ?
OUTPUT: 64.8%

INPUT: Reported viability (% of control), compound Cc1oncc1C(=O)Nc1ccc(C(F)(F)F)cc1 : ____
OUTPUT: 63.8%

INPUT: Please look up its viability (% of control): COc1ccc(C2=N[C@H](c3ccc(Cl)cc3)[C@H](c3ccc(Cl)cc3)N2C(=O)N2CCNC(=O)C2)c(OC(C)C)c1
OUTPUT: 4.23%

INPUT: Given the compound COc1ccc(CC2=NN3C([C@@H](CCc4ccccc4)[C@@H](C)O)=NC(C)C3C(=O)N2)cc1OC (stereo partly specified) , what is its reported viability (% of control)?
OUTPUT: 115%

INPUT: Give the measured viability (% of control) of Fc1ccc(Cl)cc1-c1nc(Nc2ccncc2)c2nccnc2n1 .
OUTPUT: 85.1%

====

- assay: qHTS of pediatric cancer cell lines to identify multiple opportunities for drug repurposing: Confirmatory screen for NB-EBc1 cells (AID 1347115);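 further: cells exposed to compound for 48 h before the viability read; on the % scale 0 is the no-effect control and ±100 the full control effect; nearly all actives have a fitted effect of over 45% in size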
- condition.parameters: NB-EBc1 neuroblastoma cells, viability (cytotoxicity); series mostly up to 45.9 µM
Results filed as inconclusive are left out. Active and inactive are the calls of the source. The call rests on the fitted dose curve; in most records, active means well fitted cell-killing curve with a large enough effect; inconclusive means small, poorly fitted or top-dose-only effect, or effect the other way; inactive means no such curve, though single readings can be large or run the other way.
result.type: outcome

Here are 5 molecules together with their reported answers.
>>> obs_value("Cc1cn[nH]c1")
"inactive"
>>> obs_value("Cn1cnc2c(F)c(Nc3ccc(Br)cc3Cl)c(C(=O)NOCCO)cc21")
"inactive"
>>> obs_value("COc1cccc2cc(-c3nc(C4CCC(C(=O)O)CC4)n4ncnc(N)c34)[nH]c12 (configuration not stated)")
"inactive"
>>> obs_value("COc1cc2nccc(Oc3ccc(NC(=O)NC4CC4)c(Cl)c3)c2cc1C(N)=O")
"inactive"
>>> obs_value("OC(CN1CCC(Cc2ccc(F)cc2)CC1)c1ccc(Cl)cc1 (configuration not stated)")
"inactive"

INPUT: Reported outcome for NC(N)=NC(=O)c1nc(Cl)c(N)nc1N : what is it?
OUTPUT: inactive

INPUT: Look at this molecule and give its reported outcome. CCOc1ccn(-c2ccc(F)cc2)c(=O)c1C(=O)Nc1ccc(Oc2ccnc(N)c2Cl)c(F)c1
OUTPUT: inactive

====

- assay: qHTS of pediatric cancer cell lines to identify multiple opportunities for drug repurposing: Primary screen for Rh41 cells (AID 1347108); further: nearly all actives have a fitted effect of over 70% in size; further: potency means the concentration at half of the fitted maximal effect
- condition.parameters: Rh41 rhabdomyosarcoma viability, CellTiter-Glo luminescence, 48 h; series mostly up to 46 µM
Results filed as inconclusive are left out. The source made the active and inactive calls. Calls follow the shape of the dose curve; as a rule, active = well fitted cell-killing curve with a large enough effect; inconclusive = small, poorly fitted or top-dose-only effect; inactive = no such curve, though single readings can be large or run the other way.
result.type: Potency

>>> obs_value("NC(=O)c1cnccn1")
"inactive"
>>> obs_value("CCOc1ccc(Cc2cc([C@@H]3O[C@H](CO)[C@@H](O)[C@H](O)[C@@H]3O)ccc2Cl)cc1")
"inactive"
>>> obs_value("COc1ccc(-c2ccc3c(N4CCOCC4)nc(N4C[C@@H](C)O[C@@H](C)C4)nc3n2)cc1CO")
"743 nM (active)"
>>> obs_value("c1ccc([C@H]2CN3CCSC3=N2)cc1")
"inactive"
>>> obs_value("Cc1cc(Nc2nc(N[C@@H](C)c3ncc(F)cn3)ncc2Cl)n[nH]1")
"9350 nM (active)"

INPUT: Consider the molecule shown here: NCCCC(N)(C(=O)O)C(F)F (stereo not given) What is its recorded Potency?
OUTPUT: inactive

INPUT: Which measured Potency value corresponds to Fc1ccc(Cl)cc1-c1nc(Nc2ccncc2)c2nccnc2n1 ?
OUTPUT: inactive

INPUT: Name the reported Potency value associated with the molecule CN1CCN(CCCN2c3ccccc3Sc3ccc(C(F)(F)F)cc32)CC1
OUTPUT: inactive

INPUT: Fill in: Potency of OC[C@H](Cc1ccccc1)Nc1nc(Oc2ccc3c(c2)CCC3)nc2c1ncn2Cc1ccc(-c2ccccc2)cc1 is ___
OUTPUT: inactive

INPUT: What value of Potency has been reported for the following molecule? CCN(CC)CCCC(C)Nc1ccnc2cc(Cl)ccc12 (stereo not given)
OUTPUT: inactive

INPUT: Fill blank: measured Potency of the molecule CC(C)(C)NCC(O)c1ccc(O)c(CO)c1 (stereo not given) is ____.
OUTPUT: inactive

INPUT: Sample Cc1[nH]c(=O)c(C#N)cc1-c1ccc2nccn2c1 — what was its Potency?
OUTPUT: inactive

INPUT: Using the record for Cc1cc([C@@H](C)Nc2ccccc2C(=O)O)c2nc(N3CCOCC3)cc(=O)n2c1 , report its Potency.
OUTPUT: 8550 nM (active)

INPUT: What value of Potency has been reported for the following molecule? COc1ccc2c3n(c(=NC(=O)c4cccnc4)nc2c1OC)CCN3
OUTPUT: 935 nM (active)

INPUT: Bench note: what Potency did C1COC(NC(C2CC2)C2CC2)=N1 show?
OUTPUT: inactive

INPUT: Reported Potency for c1ccc(-c2nn3c(c2-c2ccnc4cc(OCCN5CCOCC5)ccc24)CCC3)nc1 : what is it?
OUTPUT: inactive

INPUT: // Potency lookup, key: CC(C)NCC(O)COc1ccc(COCCOC(C)C)cc1 (stereo not given)
OUTPUT: inactive

INPUT: What value of Potency has been reported for the following molecule? Cc1cccc(-c2[nH]c(C(C)(C)C)nc2-c2ccc3nccnc3c2)n1
OUTPUT: 2960 nM (active)

INPUT: Can you share its Potency? I mean this molecule: O=NN(CCCl)C(=O)NCCCl
OUTPUT: inactive

INPUT: I am curious: what Potency value has been reported for O=C(O)CCc1ccc(NCc2cccc(Oc3ccccc3)c2)cc1 ?
OUTPUT: inactive

INPUT: Quick one: Potency for COc1ccc(-c2ccc3c(N4CCOC[C@H]4C)nc(N4CCOC[C@H]4C)nc3n2)cc1CO ?
OUTPUT: 41.8 nM (active)
